Reference source for all entries: patent US20220363763A1

measuredOn: T1, human PD-L1 (construct not stated) (human, UniProt Q9NZQ7 19-239, limits assumed)
T1 construct: also called B7-H1 (PD-L1); PD-L1 protein
assayDetails: BLI Octet Red 96, affinity ranking
Each item that follows carries a reported pKd.
# reply with the number alone; pKd is -log10 of concentration in mol/L

Challenge: # get_value(readout='pKd', item= Hu1210-21 (antibody, V domains shown, Hu1210 VH.4a x Vk.1a; human gamma 1 / kappa constant domains) VH: EVQLVESGGGLVQPGGSLRLSCAASGFTFSSYDMSWVRQAPGKGLEWVATISDGGGYIYYSDSVKGRFTISRDNAKNSLYLQMNSLRDEDTAVYYCAREFGKRYALDYWGQGTTVTVSS VL: DIQMTQSPSSLSASVGDRVTITCKASQDVTPAVAWYQQKPGKSPKLLIYSTSSRYTGVPSRFSGSGSGTDFTFTISSLQPEDIATYYCQQHYTTPLTFGQGTKLEIK )
Response given: 8.51

Challenge: # get_value(readout='pKd', item= Hu1210-17 (antibody, V domains shown, Hu1210 VH.4b x Vk.1; human gamma 1 / kappa constant domains) VH: EVQLVESGGGLVQPGGSLRLSCAASGFTFSSYDMSWVRQAPGKSLEWVATISDGGGYIYYSDSVKGRFTISRDNAKNSLYLQMNSLRDEDTAVYICAREFGKRYALDYWGQGTTVTVSS VL: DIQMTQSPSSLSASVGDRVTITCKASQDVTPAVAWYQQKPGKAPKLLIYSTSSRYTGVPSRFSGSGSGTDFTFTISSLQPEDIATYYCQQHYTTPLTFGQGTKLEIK )
Response given: 8.66

Challenge: # get_value(readout='pKd', item= Hu1210-13 (antibody, V domains shown, Hu1210 VH.3 x Vk.1; human gamma 1 / kappa constant domains) VH: EVQLLESGGGLVQPGGSLRLSCAASGFTFSSYDMSWVRQAPGKGLEWVSTISDGGGYIYYSDSVKGRFTISRDNSKNTLYLQMNSLRAEDTAVYYCAREFGKRYALDYWGQGTTVTVSS VL: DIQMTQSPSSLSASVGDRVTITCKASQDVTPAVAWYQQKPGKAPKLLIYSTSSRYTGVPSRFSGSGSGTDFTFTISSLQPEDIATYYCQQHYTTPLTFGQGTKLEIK )
Response given: 8.36
